- Method summary: physchem
- Settings: phosphate buffer
- Description: Solubility (in phosphate buffer)
Observable: solubility (mM)

• NS(=O)(=O)c1nnc(NC(=O)CCC(=O)O)s1 = 60.7

A: NS(=O)(=O)c1nnc(NC(=O)CCCC(=O)O)s1
B: CCC(C)OC(=O)CCC(=O)Nc1nnc(S(N)(=O)=O)s1 (stereo not drawn)
input: Kindly identify which of A and B has the larger recorded solubility value. // output: label of the selected item
output: A
(A: 31 mM, B: 3.7 mM)

a: NS(=O)(=O)c1nnc(NC(=O)CCCCC(=O)O)s1
b: CCOC(=O)CCC(=O)Nc1nnc(S(N)(=O)=O)s1
input: Given the listed items, does a or b have the lesser reported solubility? // output: label of the selected item
output: b

A: COC(=O)CCCC(=O)Nc1nnc(S(N)(=O)=O)s1
B: NS(=O)(=O)c1nnc(NC(=O)CCCCCCCC(=O)O)s1
input: Given the listed items, does A or B have the lesser reported solubility? // output: label of the selected item
output: A
(A: 11.5 mM, B: 21.6 mM)
